Items are presented alongside their recorded binding signal.
Target: GST-Dm-Relish (Drosophila melanogaster, UniProt Q94527 99-473)
Sequence: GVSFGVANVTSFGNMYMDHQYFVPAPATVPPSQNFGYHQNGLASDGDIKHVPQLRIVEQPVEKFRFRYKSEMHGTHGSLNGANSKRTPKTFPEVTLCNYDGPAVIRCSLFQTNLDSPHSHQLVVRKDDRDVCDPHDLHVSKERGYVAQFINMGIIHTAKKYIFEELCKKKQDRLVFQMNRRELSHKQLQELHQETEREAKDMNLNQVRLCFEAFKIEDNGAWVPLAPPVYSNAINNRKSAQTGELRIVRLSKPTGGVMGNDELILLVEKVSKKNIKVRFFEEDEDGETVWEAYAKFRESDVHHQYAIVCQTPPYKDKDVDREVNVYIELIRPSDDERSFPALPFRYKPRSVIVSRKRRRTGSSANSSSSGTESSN
Assay: protein-binding microarray (PBM); PBM: ~300 nM protein, 6 mM HEPES pH 7.8, 80 mM KCl, 0.5 mM EDTA, 0.5 mM EGTA, 6% glycerol, 35 ng/ul poly-dIdC, 1% milk, 1 h, room temperature; high values mean tight binding
Settings: dsDNA, one strand shown
# do not omit the unit; it follows the number

Answered cases to consult:
CCGATTAACATCAAGAATTTCCCTGATGTTAATCGGGTCTTGATTCGCTTGACGCTGCTG; 3.52 z-score
CCGATTAACATCAAAGAACCCCCTGATGTTAATCGGGTCTTGATTCGCTTGACGCTGCTG; 8.69 z-score
CCGATTAACATCAAGGAAAAACCTGATGTTAATCGGGTCTTGATTCGCTTGACGCTGCTG; 2.61 z-score

Q: Tell us which binding signal value is on record for CCGATTAACATCAAAAACCCCCTTGATGTTAATCGGGTCTTGATTCGCTTGACGCTGCTG
A: 10.9 z-score

Q: Tell us which binding signal value is on record for CCGATTAACATCAGGAAAGAACATGATGTTAATCGGGTCTTGATTCGCTTGACGCTGCTG
A: 3.57 z-score

----------
Items are presented alongside their recorded binding signal.
Target: GST-Ap-NF-kB RHD (Exaiptasia pallida (Aiptasia), UniProt A0A913YAJ5 2-422)
Sequence: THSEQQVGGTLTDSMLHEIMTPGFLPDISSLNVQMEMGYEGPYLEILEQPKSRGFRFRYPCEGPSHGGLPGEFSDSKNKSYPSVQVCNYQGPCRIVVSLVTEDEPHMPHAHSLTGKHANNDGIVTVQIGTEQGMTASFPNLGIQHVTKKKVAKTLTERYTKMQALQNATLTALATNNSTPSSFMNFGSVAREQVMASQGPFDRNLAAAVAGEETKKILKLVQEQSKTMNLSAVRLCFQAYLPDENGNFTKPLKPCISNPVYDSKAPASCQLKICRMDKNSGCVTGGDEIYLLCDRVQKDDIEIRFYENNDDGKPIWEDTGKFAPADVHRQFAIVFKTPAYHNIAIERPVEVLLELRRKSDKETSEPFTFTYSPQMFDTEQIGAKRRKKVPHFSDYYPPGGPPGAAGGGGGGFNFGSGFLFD
Assay: protein-binding microarray (PBM); PBM: ~300 nM protein, 6 mM HEPES pH 7.8, 80 mM KCl, 0.5 mM EDTA, 0.5 mM EGTA, 6% glycerol, 35 ng/ul poly-dIdC, 1% milk, 1 h, room temperature; high values mean tight binding
Settings: dsDNA, one strand shown
Could you give me the number in z-score? Just the number is fine.

CCGATTAACATCAGGGACTTTTATGATGTTAATCGGGTCTTGATTCGCTTGACGCTGCTG; 7.76
CCGATTAACATCAAGGAAATACCTGATGTTAATCGGGTCTTGATTCGCTTGACGCTGCTG; 1.2
CCGATTAACATCAGGGAAGCCCCTGATGTTAATCGGGTCTTGATTCGCTTGACGCTGCTG; 9.42

Q: Tell us which binding signal value is on record for CCGATTAACATCAGATAAACCCCTGATGTTAATCGGGTCTTGATTCGCTTGACGCTGCTG
A: 4.36

Q: Tell us which binding signal value is on record for CCGATTAACATCAATTTCCCAGGTGATGTTAATCGGGTCTTGATTCGCTTGACGCTGCTG
A: 2.16

Q: Tell us which binding signal value is on record for CCGATTAACATCACAAATACCCCTGATGTTAATCGGGTCTTGATTCGCTTGACGCTGCTG
A: 5.46

----------
target: GST-Hu-p50 (Homo sapiens, UniProt P19838 7-356); assay: protein-binding microarray (PBM); PBM: ~300 nM protein, 6 mM HEPES pH 7.8, 80 mM KCl, 0.5 mM EDTA, 0.5 mM EGTA, 6% glycerol, 35 ng/ul poly-dIdC, 1% milk, 1 h, room temperature; high values mean tight binding; details: dsDNA, one strand shown
Sequence (P19838 7-356): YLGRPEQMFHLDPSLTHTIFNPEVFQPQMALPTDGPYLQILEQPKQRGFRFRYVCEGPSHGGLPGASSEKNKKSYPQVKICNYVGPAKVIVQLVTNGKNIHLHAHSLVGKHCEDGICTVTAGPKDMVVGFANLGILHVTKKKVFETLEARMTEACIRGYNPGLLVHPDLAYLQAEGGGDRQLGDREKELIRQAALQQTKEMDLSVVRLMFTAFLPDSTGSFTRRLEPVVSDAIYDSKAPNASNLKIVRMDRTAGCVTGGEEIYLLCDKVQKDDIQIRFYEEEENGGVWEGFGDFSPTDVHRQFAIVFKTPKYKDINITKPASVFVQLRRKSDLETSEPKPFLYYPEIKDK
measured.quantity: binding signal (z-score)
Could you give me the number in z-score? Just the number is fine.

CCGATTAACATCACAAAATTCCCTGATGTTAATCGGGTCTTGATTCGCTTGACGCTGCTG; 6.04

Q: Tell us which binding signal value is on record for CCGATTAACATCACCTGAACTATTGATGTTAATCGGGTCTTGATTCGCTTGACGCTGCTG
A: 1.45

Q: Tell us which binding signal value is on record for CCGATTAACATCAGGAATTACCCTGATGTTAATCGGGTCTTGATTCGCTTGACGCTGCTG
A: 4.51

----------
Items are presented alongside their recorded binding signal.
Target: GST-Aq-NF-kB (Amphimedon queenslandica, UniProt A9Y5G7 2-389)
Sequence: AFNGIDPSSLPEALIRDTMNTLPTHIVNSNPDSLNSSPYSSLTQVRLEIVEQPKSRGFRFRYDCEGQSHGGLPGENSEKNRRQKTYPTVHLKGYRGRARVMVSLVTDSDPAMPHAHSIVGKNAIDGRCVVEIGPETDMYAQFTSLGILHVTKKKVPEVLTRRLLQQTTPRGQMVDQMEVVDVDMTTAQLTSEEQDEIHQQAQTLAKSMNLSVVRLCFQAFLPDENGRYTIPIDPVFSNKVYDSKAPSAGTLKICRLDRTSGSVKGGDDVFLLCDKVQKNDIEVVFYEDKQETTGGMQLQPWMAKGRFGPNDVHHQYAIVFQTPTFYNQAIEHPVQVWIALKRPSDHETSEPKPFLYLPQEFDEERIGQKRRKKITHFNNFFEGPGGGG
Experiment: protein-binding microarray (PBM); PBM: ~300 nM protein, 6 mM HEPES pH 7.8, 80 mM KCl, 0.5 mM EDTA, 0.5 mM EGTA, 6% glycerol, 35 ng/ul poly-dIdC, 1% milk, 1 h, room temperature; high values mean tight binding
Details: dsDNA, one strand shown
Could you give me the number in z-score? Just the number is fine.

Answered cases to consult:
CCGATTAACATCAGGACGTTCCCTGATGTTAATCGGGTCTTGATTCGCTTGACGCTGCTG; 5.14
CCGATTAACATCAGGGGGAACTATGATGTTAATCGGGTCTTGATTCGCTTGACGCTGCTG; 4.97

Q: Please indicate recorded binding signal of CCGATTAACATCAATCCTCCCCCTGATGTTAATCGGGTCTTGATTCGCTTGACGCTGCTG measured with GST-Aq-NF-kB (Amphimedon queenslandica, UniProt A9Y5G7 2-389).
A: 4.98

----------
target: GST-Hu-p50 (Homo sapiens, UniProt P19838 7-356); assay: protein-binding microarray (PBM); PBM: ~300 nM protein, 6 mM HEPES pH 7.8, 80 mM KCl, 0.5 mM EDTA, 0.5 mM EGTA, 6% glycerol, 35 ng/ul poly-dIdC, 1% milk, 1 h, room temperature; Ap Aiptasia and Nv Nematostella (sea anemones) / Co Capsaspora / Aq Amphimedon (sponge) / Dm Drosophila / Hu human; RHD is the Rel homology domain; high values mean tight binding; details: dsDNA, one strand shown
measured.quantity: binding signal (z-score)
Could you give me the number in z-score? Just the number is fine.

CCGATTAACATCAGGATAGTCCCTGATGTTAATCGGGTCTTGATTCGCTTGACGCTGCTG; 4.05
CCGATTAACATCAGGGGGAGATATGATGTTAATCGGGTCTTGATTCGCTTGACGCTGCTG; 5.93
CCGATTAACATCACACAATCCCCTGATGTTAATCGGGTCTTGATTCGCTTGACGCTGCTG; 5.87
CCGATTAACATCACAACTCCCCCTGATGTTAATCGGGTCTTGATTCGCTTGACGCTGCTG; 5.55
CCGATTAACATCAAATTTCCCCGTGATGTTAATCGGGTCTTGATTCGCTTGACGCTGCTG; 6.52
CCGATTAACATCAAAAAAGTCCGTGATGTTAATCGGGTCTTGATTCGCTTGACGCTGCTG; 1.4

Q: Tell us which binding signal value is on record for CCGATTAACATCAGGCGAACCCCTGATGTTAATCGGGTCTTGATTCGCTTGACGCTGCTG
A: 1.53

Q: Tell us which binding signal value is on record for CCGATTAACATCAGCTAATTCCCTGATGTTAATCGGGTCTTGATTCGCTTGACGCTGCTG
A: 2.27

Q: Tell us which binding signal value is on record for CCGATTAACATCAGATCCCCCCCTGATGTTAATCGGGTCTTGATTCGCTTGACGCTGCTG
A: 5.36

Q: Tell us which binding signal value is on record for CCGATTAACATCAAAACCTCCCCTGATGTTAATCGGGTCTTGATTCGCTTGACGCTGCTG
A: 4.55

Q: Tell us which binding signal value is on record for CCGATTAACATCAAATAAGCCCCTGATGTTAATCGGGTCTTGATTCGCTTGACGCTGCTG
A: 4.31

Q: Tell us which binding signal value is on record for CCGATTAACATCAGGGACATCCCTGATGTTAATCGGGTCTTGATTCGCTTGACGCTGCTG
A: 3.84

Q: Tell us which binding signal value is on record for CCGATTAACATCAGGGGGGTAGATGATGTTAATCGGGTCTTGATTCGCTTGACGCTGCTG
A: 3.2

Q: Tell us which binding signal value is on record for CCGATTAACATCAAAGACCCCCCTGATGTTAATCGGGTCTTGATTCGCTTGACGCTGCTG
A: 4.3

Q: Tell us which binding signal value is on record for CCGATTAACATCAGGGGGGTAAATGATGTTAATCGGGTCTTGATTCGCTTGACGCTGCTG
A: 4.35

Q: Tell us which binding signal value is on record for CCGATTAACATCACAACTTCCCCTGATGTTAATCGGGTCTTGATTCGCTTGACGCTGCTG
A: 6.13

The reported numbers originate from paper PMC5700166.
